Where these numbers come from: patent US20240270821A1

experimental system: human GLP1-R (Homo sapiens, UniProt P43220)
Sequence (P43220 24-463): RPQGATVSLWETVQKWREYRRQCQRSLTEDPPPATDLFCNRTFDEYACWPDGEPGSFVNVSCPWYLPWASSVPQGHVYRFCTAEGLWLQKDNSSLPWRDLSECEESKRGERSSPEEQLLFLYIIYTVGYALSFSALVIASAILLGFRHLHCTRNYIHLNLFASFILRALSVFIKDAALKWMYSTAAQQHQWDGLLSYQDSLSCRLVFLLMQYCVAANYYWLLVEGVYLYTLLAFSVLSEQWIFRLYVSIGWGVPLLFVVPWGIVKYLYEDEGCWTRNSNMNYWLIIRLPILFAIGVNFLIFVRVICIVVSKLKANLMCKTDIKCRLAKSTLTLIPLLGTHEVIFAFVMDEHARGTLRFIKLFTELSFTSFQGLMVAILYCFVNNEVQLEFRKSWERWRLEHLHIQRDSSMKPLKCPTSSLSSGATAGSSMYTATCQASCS
test: GLP1-R internalization assay in HEK293 cells
Type: cell-based
conditions: normalized to maximum concentration of GLP-1 (100%)
Starred links: 1 amine or outer side, 2 acyl side, 3 side chain; linkers in the order of their positions; H or OH if unused. Non-standard residues stand in square brackets, D forms with d. Groups on a side chain read outwards from the residue. No end group written: not given here. *: point of attachment. C20 diacid = O=C(O)CCCCCCCCCCCCCCCCCCC(=O)*; C18 diacid = O=C(O)CCCCCCCCCCCCCCCCC(=O)*; γGlu = O=C(O)[C@H](CCC(=O)[*:2])N[*:1]; αMeL = CC(C)C[C@](C)(N)C(=O)O; Orn = NCCC[C@H](N)C(=O)O; Dap = NC[C@H](N)C(=O)O; AEEA = NCCOCCOCC(=O)O; Aib = CC(C)(N)C(=O)O
parameter measured: Internalization % TOP (%)
The answer is to be given in %; state only the numeric part.

### Prompt Please give the measured Internalization % TOP for this substance: H-Y[Aib]QGTFTSDFS[Orn][αMeL]LDKK([AEEA-AEEA-γGlu-C18 diacid])AQ[Aib]AFIEYLLE[Aib]GHSSGAPPPSGE-NH2 [Example 186]
### Response 41.1

### Prompt # Internalization % TOP lookup, item H-Y[Aib]QGTFTSDFS[Orn][αMeL]LDKK([AEEA-AEEA-γGlu-C20 diacid])AQ[Aib]AFIEYLLE[Aib]GPSSGAPPPSEG-NH2 [Example 71]
### Response 68.6

### Prompt Query (substance): H-Y[Aib]QGTFTSDFS[Orn][αMeL]LDKK([AEEA-γGlu-C18 diacid])AQ[Aib]AFIEYLLE[dA]GPSSGAPPPSGS-NH2 [Example 209] ; field requested: Internalization % TOP
### Response 41.2

### Prompt Quick check: Internalization % TOP of H-Y[Aib]QGTFTSDFS[Dap][αMeL]LDKK([AEEA-γGlu-C18 diacid])AQ[Aib]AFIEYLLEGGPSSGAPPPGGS-NH2 [Example 68] ?
### Response 33.8

### Prompt Given the entry H-Y[Aib]QGTFTSDFSK[αMeL]LDKK([AEEA-γGlu-C20 diacid])AQ[Aib]AFIEYLLAGGPSSGAPPPSEG-NH2 [Example 10] , report its measured Internalization % TOP.
### Response 71.9

### Prompt Given Y[Aib]QGTFTSDFS[Orn][αMeL]LDKK([AEEA-γGlu-C18 diacid])AQ[Aib]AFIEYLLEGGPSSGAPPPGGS-NH2 [Example 62] , state its recorded Internalization % TOP.
### Response 44.9
